Target: T1, Nluc-IL23R fusion protein (human, UniProt Q5VWK5 22-629)
T1 construct: range 22-629; expressed with a secretion signal in HEK293 cells; used as crude membrane preparation; also called hIL-23R; human IL-23R; not shown: Nanoluc protein from the expression plasmid N1371 (Promega), N-terminal of IL-23R
T1 sequence (looked up): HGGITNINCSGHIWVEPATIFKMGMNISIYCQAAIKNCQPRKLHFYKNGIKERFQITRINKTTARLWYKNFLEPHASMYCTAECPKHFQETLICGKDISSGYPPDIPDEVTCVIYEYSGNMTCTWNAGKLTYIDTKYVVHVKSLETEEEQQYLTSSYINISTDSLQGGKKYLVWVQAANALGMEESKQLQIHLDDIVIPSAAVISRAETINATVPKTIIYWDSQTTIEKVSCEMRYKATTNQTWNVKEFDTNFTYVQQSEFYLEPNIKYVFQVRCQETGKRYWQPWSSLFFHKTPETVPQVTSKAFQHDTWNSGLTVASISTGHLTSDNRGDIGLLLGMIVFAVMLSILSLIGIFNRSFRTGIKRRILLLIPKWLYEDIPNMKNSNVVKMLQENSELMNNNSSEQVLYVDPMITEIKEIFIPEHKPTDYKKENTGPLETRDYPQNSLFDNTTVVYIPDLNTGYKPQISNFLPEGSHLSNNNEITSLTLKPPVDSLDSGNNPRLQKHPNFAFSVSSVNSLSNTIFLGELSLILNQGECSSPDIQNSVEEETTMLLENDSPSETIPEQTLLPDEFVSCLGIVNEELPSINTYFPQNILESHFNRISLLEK
Assay: BRET competition vs TAMRA-labelled peptide, Nluc-IL23R membranes
*1 amine or outer side, *2 acyl side, *3 side chain or, on linkers, in order; H or OH if unused. Bridges are numbered along the chain shown (N, C = ends). Where no end group is shown, it is not given here. [ ]: non-standard residue; d: D form. 4‑Aminomethyl‑phenylacetyl = 4-aminomethyl-phenylacetyl unit, its amine closes the lactam, O=C(Cc1ccc(CN[*:1])cc1)[*:2]; 2Nal = N[C@@H](Cc1ccc2ccccc2c1)C(=O)O; AEF = NCCOc1ccc(C[C@H](N)C(=O)O)cc1; 3Pal = N[C@@H](Cc1cccnc1)C(=O)O; Cit = NC(=O)NCCC[C@H](N)C(=O)O; αMeL = CC(C)C[C@](C)(N)C(=O)O; 3Amb = NCc1cccc(C(=O)O)c1; Dab = NCC[C@H](N)C(=O)O; βAla = NCCC(=O)O
measure: % displacement (hIL-23R binding) (%)
# unit: % | format: bare number

- [4‑Aminomethyl‑phenylacetyl]SEWF[Dab][AEF][2Nal][αMeL]E[Dab][3Pal]-NHMe (lactam N-10, 3-6; SMILES CNC(=O)[C@H](Cc1cccnc1)NC(=O)[C@H](CCN)NC(=O)[C@@H]1CCC(=O)NCc2ccc(cc2)CC(=O)N[C@@H](CO)C(=O)N[C@H]2CCC(=O)NCC[C@H](NC(=O)[C@H](Cc3ccccc3)NC(=O)[C@H](Cc3c[nH]c4ccccc34)NC2=O)C(=O)N[C@@H](Cc2ccc(OCCN)cc2)C(=O)N[C@@H](Cc2ccc3ccccc3c2)C(=O)N[C@@](C)(CC(C)C)C(=O)N1) [Compound 23]: 97
- [4‑Aminomethyl‑phenylacetyl]SEWA[Dab][AEF][2Nal][αMeL]E[Dab][3Pal]-NHMe (lactam N-10, 3-6; SMILES CNC(=O)[C@H](Cc1cccnc1)NC(=O)[C@H](CCN)NC(=O)[C@@H]1CCC(=O)NCc2ccc(cc2)CC(=O)N[C@@H](CO)C(=O)N[C@H]2CCC(=O)NCC[C@H](NC(=O)[C@H](C)NC(=O)[C@H](Cc3c[nH]c4ccccc34)NC2=O)C(=O)N[C@@H](Cc2ccc(OCCN)cc2)C(=O)N[C@@H](Cc2ccc3ccccc3c2)C(=O)N[C@@](C)(CC(C)C)C(=O)N1) [Compound 22]: 96
- [4‑Aminomethyl‑phenylacetyl]SEWQ[Dab][AEF][2Nal][αMeL]EH[3Pal]-NHMe (lactam N-10, 3-6; SMILES CNC(=O)[C@H](Cc1cccnc1)NC(=O)[C@H](Cc1c[nH]cn1)NC(=O)[C@@H]1CCC(=O)NCc2ccc(cc2)CC(=O)N[C@@H](CO)C(=O)N[C@H]2CCC(=O)NCC[C@H](NC(=O)[C@H](CCC(N)=O)NC(=O)[C@H](Cc3c[nH]c4ccccc34)NC2=O)C(=O)N[C@@H](Cc2ccc(OCCN)cc2)C(=O)N[C@@H](Cc2ccc3ccccc3c2)C(=O)N[C@@](C)(CC(C)C)C(=O)N1) [Compound 34]: 90
- [3Amb]SCWQC[AEF][2Nal][αMeL]ER[3Pal]-NH2 (lactam N-10; bridge 3-6; not fully specified (bridges); printed as [(3-Aminomethyl)benzoyl](1c)*SC(2a)WQC(2a)[Y(2-aminoethoxy)][2-Nal][2-Me-Leu]E(1c)R[3-(3-Pyridyl)-Ala]-[NH2]) [Ref 78]: 100
- Ac-KTCWQC[AEF][2Nal][αMeL]E[Dab][3Pal]-NH2 (lactam 1-10; bridge 3-6; not fully specified (bridges); printed as [Ac]-K(1c)TC(2a)WQC(2a)[Y(2-aminoethoxy)][2-Nal][2-Me-Leu]E(1c)[Dab][3-(3-Pyridyl)-Ala]-[NH2]) [Ref 155]: 97

Fill in reported % displacement (hIL-23R binding) for this entry: [3Pal][βAla]SCWQC[AEF][2Nal][αMeL]E[dR]-NH2 (lactam N-11; linker 4-7 via 1,3‑dithio‑propan‑2‑one) [Compound 2]
103

Report % displacement (hIL-23R binding) for [4‑Aminomethyl‑phenylacetyl]SEWQ[Dab][AEF][2Nal][αMeL]E[Dab][3Pal]-NH2 (lactam N-10, 3-6; SMILES CC(C)C[C@]1(C)NC(=O)[C@H](Cc2ccc3ccccc3c2)NC(=O)[C@H](Cc2ccc(OCCN)cc2)NC(=O)[C@@H]2CCNC(=O)CC[C@H](NC(=O)[C@H](CO)NC(=O)Cc3ccc(cc3)CNC(=O)CC[C@@H](C(=O)N[C@@H](CCN)C(=O)N[C@@H](Cc3cccnc3)C(N)=O)NC1=O)C(=O)N[C@@H](Cc1c[nH]c3ccccc13)C(=O)N[C@@H](CCC(N)=O)C(=O)N2) [Ref 122]
97

Could you please provide reported % displacement (hIL-23R binding) for [4‑Aminomethyl‑phenylacetyl]SEW[Dab](Ac)[Dab][AEF][2Nal][αMeL]E[Dab][3Pal]-NHMe (lactam (positions not given here); lactam 3-6; not fully specified (bridges)) [Compound 25] ? Thanks!
93

Give reported % displacement (hIL-23R binding) value for [4‑Aminomethyl‑phenylacetyl]SEW[Cit][Dab][AEF][2Nal][αMeL]E[Dab][3Pal]-NHMe (lactam (positions not given here); lactam 3-6; not fully specified (bridges)) [Compound 26]
95

Could you please provide reported % displacement (hIL-23R binding) for [4‑Aminomethyl‑phenylacetyl]SEWQ[Dab][AEF][2Nal][αMeL]ES[3Pal]-NHMe (lactam N-10, 3-6) [Compound 31] ? Thanks!
97

Cited source: patent EP4471049A1
